Test system: Blood
Assay: Biodistribution in Sprague-Dawley rat blood at 1.48 to 2.22 MBq, iv measured at 30 mins by gamma counting analysis
Assay type: ADME, organism-based
Settings: in vivo, 0.5 h
experimental-readout: Drug uptake (% ID/g)

> print(dat)
                               entry.smiles  tested.system  unit.abbreviation  observed.value
1  Cn1cc(-c2ccncc2)c(-c2ccc(OCc3cc(OCCOCCOCC[18F])c4ccccc4n3)cc2)n1          Blood             % ID/g           0.771

A = Cn1cc(-c2ccncc2)c(-c2ccc(OCc3cc([18F])c4ccccc4n3)cc2)n1
B = Cn1cc(-c2ccncc2)c(-c2ccc(OCc3cc(OCC[18F])c4ccccc4n3)cc2)n1
Lab log: flag the item ( A or B ) with the smaller Drug uptake figure. In your reply, give the label of the chosen option.
B
(B: 0.226 % ID/g, A: 0.376 % ID/g)
